# assay_explanation: liver-stage malaria parasite growth inhibition, primary screen, cell-based, HepG2, luciferase luminescence, HepG2 viability (AID 624349);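 also: 100% = mean of DMSO negative control wells on the same plate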
# experimental_parameters: P. berghei liver stage in HepG2, luciferase luminescence, concentration not given here; active compounds read low
Measured parasite load remaining, listed per entry for reference.
Number in %, nothing else.

Q) # query: parasite load remaining of entry COc1ccc2c(c1)C(=O)N(CCc1ccc(S(=O)(=O)NC(=O)NC3CCCCC3)cc1)C(=O)C2(C)C
A) 128

Q) # query: parasite load remaining of entry CC(C)=CCC1=C(O)c2ccccc2C(=O)C1=O
A) 85.5

Q) # query: parasite load remaining of entry CN=C(N)NCCC[C@H](N)C(=O)O
A) 97.7

Lab note: next compound to report on.
Q) # query: parasite load remaining of entry CCOC(=O)C(Cc1ccc(O)cc1)NC(C)=O (centres undefined)
A) 109

* * *

Measured red/green cell ratio (normalised), listed per entry for reference.
# assay_explanation: differential killing of epithelial or mesenchymal cells, primary screen, imaging, PC-3E GFP, TEM4-18 mCherry, co-culture (AID 1345086);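 also: normalised mesenchymal count divided by normalised epithelial count so high means epithelial killing; cells exposed to compound for 72 h before imaging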
# experimental_parameters: imaging cell counts, at 1 µM, actives lie on both sides, counts scaled to control wells, 1 = unselective
Please state the value as a number alone, without comment.

Q) # query: red/green cell ratio (normalised) of entry O=C(O)CCCCCCCCCCCCC1C=CCC1 (stereo not drawn)
A) 1

Q) # query: red/green cell ratio (normalised) of entry CC(=O)/C(=C\c1ccccc1)CC(=O)O
A) 0.99

Q) # query: red/green cell ratio (normalised) of entry CN1C(=O)CC(c2ccccc2)C1=O (stereo not drawn)
A) 0.99

* * *

# assay_explanation: viability loss in pontine glioma line – cell-based, SU-DIPG-XXV, MIPE5.0, CellTiter-Glo, qHTS, dose response (AID 1347065);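 also: cells exposed to compound for 48 hours before ATP readout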
# experimental_parameters: CellTiter-Glo ATP luminescence
Results filed as inconclusive are left out. Active and inactive are the calls of the source. No cut-off is given here; in the data, nearly all actives have AC50 up to about 26 µM.
Use one of these outcomes when replying: active, inactive

Q) Hey, what did the test say about CN[C@H](CC(C)C)C(=O)N[C@H]1C(=O)N[C@@H](CC(N)=O)C(=O)N[C@H]2C(=O)N[C@H]3C(=O)N[C@H](C(=O)N[C@H](C(=O)O)c4cc(O)cc(O)c4-c4cc3ccc4O)[C@H](O)c3ccc(c(Cl)c3)Oc3cc2cc(c3O[C@@H]2O[C@H](CO)[C@@H](O)[C@H](O)[C@H]2O[C@H]2C[C@](C)(N)[C@H](O)[C@H](C)O2)Oc2ccc(cc2Cl)[C@H]1O ?
A) inactive

Q) Hey, what did the test say about Clc1cccc(C(c2ccc3nc[nH]c3c2)n2ccnc2)c1 (centres undefined) ?
A) inactive

Q) Hey, what did the test say about Cc1ccccc1C(=O)Nc1ccc(C(=O)N2CCCC(O)c3cc(Cl)ccc32)c(C)c1 (centres undefined) ?
A) inactive

Q) Hey, what did the test say about Cc1nc(Nc2ncc(C(=O)Nc3c(C)cccc3Cl)s2)cc(N2CCN(CCO)CC2)n1 ?
A) active

Q) Hey, what did the test say about O=C(CCCCCCC(=O)Nc1ccccc1)NO ?
A) active

Next:
Q) Hey, what did the test say about CC/C(=C(\c1ccccc1)c1ccc(OCCN(C)C)cc1)c1ccccc1 ?
A) active

Q) Hey, what did the test say about NC(=O)c1cccnc1 ?
A) inactive

Q) Hey, what did the test say about O=C(O)[C@H](O)[C@@H](O)[C@H](O[C@@H]1O[C@H](CO)[C@H](O)[C@H](O)[C@H]1O)[C@H](O)CO ?
A) inactive

Q) Hey, what did the test say about O=C(Nc1ccc(S(=O)(=O)N2CCOCC2)cc1)c1cc(Cl)ccc1NS(=O)(=O)c1ccc(Cl)s1 ?
A) inactive

Q) Hey, what did the test say about CNC(=O)c1ccccc1Sc1ccc2c(/C=C/c3ccccn3)n[nH]c2c1 ?
A) active

All values here come from PubChem BioAssay.
